# ASSAY NOTES: CSF pharmacokinetics substudy
# Type: in vivo, human
# MEASUREMENT CONDITIONS: male, human, plasma (unbound), oral, 2 mg
QUANTITY MEASURED: concentration at 6 h (ng/mL)
Hi! Could you send only the number? It should be in ng/mL, unit omitted.

Record summary for Nc1nnc(CN[C@@H]2C[C@H]2c2ccc(OCc3ccccc3)cc2)o1 : reported concentration at 6 h = 0.248

---

# ASSAY NOTES: CSF pharmacokinetics substudy
# Type: in vivo, human
# MEASUREMENT CONDITIONS: male, human, plasma (unbound), oral, 2 mg
QUANTITY MEASURED: concentration at 2 h (ng/mL)
Hi! Could you send only the number? It should be in ng/mL, unit omitted.

Record summary for Nc1nnc(CN[C@@H]2C[C@H]2c2ccc(OCc3ccccc3)cc2)o1 [vafidemstat] : reported concentration at 2 h = 0.316

---

# ASSAY NOTES: Plasma pharmacokinetics, multiple ascending dose
# Assay type: in vivo, human
# MEASUREMENT CONDITIONS: both, human, plasma, oral, 0.6 mg/day, Cmax,ss (D5), MAD 0.6 mg/day, day 5, young; mean (CV %)
QUANTITY MEASURED: Cmax (ng/mL)
Hi! Could you send only the number? It should be in ng/mL, unit omitted.

Record summary for Nc1nnc(CN[C@@H]2C[C@H]2c2ccc(OCc3ccccc3)cc2)o1 : reported Cmax = 7.65

---

# ASSAY NOTES: Plasma pharmacokinetics, multiple ascending dose
# Format: in vivo, human
# MEASUREMENT CONDITIONS: both, human, plasma, oral, 1.5 mg/day, Cmax (D1), MAD 1.5 mg/day, day 1, young; mean (CV %)
QUANTITY MEASURED: Cmax (ng/mL)
Hi! Could you send only the number? It should be in ng/mL, unit omitted.

Record summary for Nc1nnc(CN[C@@H]2C[C@H]2c2ccc(OCc3ccccc3)cc2)o1 [vafidemstat] : reported Cmax = 11.3

---

# ASSAY NOTES: Plasma pharmacokinetics, single ascending dose
# Format: in vivo, human
# MEASUREMENT CONDITIONS: male, human, plasma, po, 0.2 mg
QUANTITY MEASURED: Cmax (ng/mL)
Hi! Could you send only the number? It should be in ng/mL, unit omitted.

Record summary for Nc1nnc(CN[C@@H]2C[C@H]2c2ccc(OCc3ccccc3)cc2)o1 [vafidemstat] : reported Cmax = 1.11

---

# ASSAY NOTES: Plasma pharmacokinetics, single ascending dose
# Type: in vivo, human
# MEASUREMENT CONDITIONS: male, human, plasma, po, 0.6 mg
QUANTITY MEASURED: Cmax
Answer format: value, then unit.

Record summary for Nc1nnc(CN[C@@H]2C[C@H]2c2ccc(OCc3ccccc3)cc2)o1 : reported Cmax = 3.21 ng/mL

---

# ASSAY NOTES: Plasma pharmacokinetics, multiple ascending dose
# Type: in vivo, human
# MEASUREMENT CONDITIONS: both, human, plasma, oral, 2.5 mg/day, t½, MAD 2.5 mg/day, 5 days, young; mean (CV %)
QUANTITY MEASURED: half-life (h)
Hi! Could you send only the number? It should be in h, unit omitted.

Record summary for Nc1nnc(CN[C@@H]2C[C@H]2c2ccc(OCc3ccccc3)cc2)o1 : reported half-life = 22

---

# ASSAY NOTES: Plasma pharmacokinetics, single ascending dose
# Type: in vivo, human
# MEASUREMENT CONDITIONS: both, human, plasma, oral
QUANTITY MEASURED: Tmax

Record summary for Nc1nnc(CN[C@@H]2C[C@H]2c2ccc(OCc3ccccc3)cc2)o1 [vafidemstat] : reported Tmax = 0.5 to 2 h

---

# ASSAY NOTES: Plasma pharmacokinetics, single ascending dose
# Format: in vivo, human
# MEASUREMENT CONDITIONS: male, human, plasma, po, 1.5 mg
QUANTITY MEASURED: AUC(0-inf) (ng·h/mL)
Hi! Could you send only the number? It should be in ng·h/mL, unit omitted.

Record summary for Nc1nnc(CN[C@@H]2C[C@H]2c2ccc(OCc3ccccc3)cc2)o1 : reported AUC(0-inf) = 428

---

# ASSAY NOTES: Plasma pharmacokinetics, multiple ascending dose
# Format: in vivo, human
# MEASUREMENT CONDITIONS: both, human, plasma, oral, 1.5 mg/day
QUANTITY MEASURED: Tmax (h)
Hi! Could you send only the number? It should be in h, unit omitted.

Record summary for Nc1nnc(CN[C@@H]2C[C@H]2c2ccc(OCc3ccccc3)cc2)o1 : reported Tmax = 1.17

---

# ASSAY NOTES: Plasma pharmacokinetics, multiple ascending dose
# Type: in vivo, human
# MEASUREMENT CONDITIONS: human, plasma, oral, 2.5 mg/day
QUANTITY MEASURED: Tmax (h)
Hi! Could you send only the number? It should be in h, unit omitted.

Record summary for Nc1nnc(CN[C@@H]2C[C@H]2c2ccc(OCc3ccccc3)cc2)o1 : reported Tmax = 2.33

---

# ASSAY NOTES: Plasma pharmacokinetics, single ascending dose
# Assay type: in vivo, human
# MEASUREMENT CONDITIONS: male, human, plasma, po, 1.5 mg
QUANTITY MEASURED: Tmax
Answer format: value, then unit.

Record summary for Nc1nnc(CN[C@@H]2C[C@H]2c2ccc(OCc3ccccc3)cc2)o1 : reported Tmax = 55.2 min

---

# ASSAY NOTES: CSF pharmacokinetics substudy
# Type: in vivo, human
# MEASUREMENT CONDITIONS: male, human, plasma (unbound), oral, 2 mg
QUANTITY MEASURED: concentration at 12 h (ng/mL)
Hi! Could you send only the number? It should be in ng/mL, unit omitted.

Record summary for Nc1nnc(CN[C@@H]2C[C@H]2c2ccc(OCc3ccccc3)cc2)o1 : reported concentration at 12 h = 0.186

---

# ASSAY NOTES: Plasma pharmacokinetics, single ascending dose
# Assay type: in vivo, human
# MEASUREMENT CONDITIONS: male, human, plasma, po, 0.6 mg
QUANTITY MEASURED: AUC(0-inf) (ng·h/mL)
Hi! Could you send only the number? It should be in ng·h/mL, unit omitted.

Record summary for Nc1nnc(CN[C@@H]2C[C@H]2c2ccc(OCc3ccccc3)cc2)o1 [vafidemstat] : reported AUC(0-inf) = 90.7

---

# ASSAY NOTES: Plasma pharmacokinetics, multiple ascending dose
# Type: in vivo, human
# MEASUREMENT CONDITIONS: human, plasma, oral, 2.5 mg/day, Cmax,ss (D5), MAD older adult 2.5 mg/day, day 5; mean (CV %)
QUANTITY MEASURED: Cmax (ng/mL)
Hi! Could you send only the number? It should be in ng/mL, unit omitted.

Record summary for Nc1nnc(CN[C@@H]2C[C@H]2c2ccc(OCc3ccccc3)cc2)o1 [vafidemstat] : reported Cmax = 41

---

# ASSAY NOTES: Plasma pharmacokinetics, multiple ascending dose
# Assay type: in vivo, human
# MEASUREMENT CONDITIONS: both, human, plasma, oral, 4 mg/day, AUC0–t,ss (D5), MAD 4.0 mg/day, day 5, young; mean (CV %)
QUANTITY MEASURED: AUC(0-t) (ng·h/mL)
Hi! Could you send only the number? It should be in ng·h/mL, unit omitted.

Record summary for Nc1nnc(CN[C@@H]2C[C@H]2c2ccc(OCc3ccccc3)cc2)o1 [vafidemstat] : reported AUC(0-t) = 994

---

# ASSAY NOTES: Plasma pharmacokinetics, multiple ascending dose
# Assay type: in vivo, human
# MEASUREMENT CONDITIONS: both, human, plasma, oral, 4 mg/day
QUANTITY MEASURED: Tmax

Record summary for Nc1nnc(CN[C@@H]2C[C@H]2c2ccc(OCc3ccccc3)cc2)o1 : reported Tmax = 1.33 h

---

# ASSAY NOTES: Plasma pharmacokinetics, single ascending dose
# Assay type: in vivo, human
# MEASUREMENT CONDITIONS: both, human, plasma, oral
QUANTITY MEASURED: half-life

Record summary for Nc1nnc(CN[C@@H]2C[C@H]2c2ccc(OCc3ccccc3)cc2)o1 : reported half-life = 1200 to 1800 min

---

# ASSAY NOTES: Plasma pharmacokinetics, multiple ascending dose
# Format: in vivo, human
# MEASUREMENT CONDITIONS: both, human, plasma, oral, 0.2 mg/day, t½, MAD 0.2 mg/day, 5 days, young; mean (CV %)
QUANTITY MEASURED: half-life
Answer format: value, then unit.

Record summary for Nc1nnc(CN[C@@H]2C[C@H]2c2ccc(OCc3ccccc3)cc2)o1 [vafidemstat] : reported half-life = 22 h

---

# ASSAY NOTES: CSF pharmacokinetics substudy
# Format: in vivo, human
# MEASUREMENT CONDITIONS: male, human, CSF, oral, 4 mg
QUANTITY MEASURED: concentration at 6 h (ng/mL)
Hi! Could you send only the number? It should be in ng/mL, unit omitted.

Record summary for Nc1nnc(CN[C@@H]2C[C@H]2c2ccc(OCc3ccccc3)cc2)o1 : reported concentration at 6 h = 0.734
